Assay: pKa measurement, absorbance-based platereader assay
Type: physicochemical
Conditions: DMSO/buffer mixture (1/1), pH 3.33-6.33, sigmoidal fitting, n = 3 assays
Endpoint Name: pKa
Give bare numbers.

Q: What measured pKa goes with CCN(CC)c1ccc(/N=N/c2ccc(S(=O)(=O)NC(=O)NC3CCCCC3)cc2)cc1 [JB253] ?
A: 4.76

====

Assignment: determine reported IC50 for the given compounds.
Target: SUR1 (Rattus norvegicus, UniProt Q09429)
Construct: expressed in transfected cells; host or cells: HEK293t
Sequence (Q09429 whole entry): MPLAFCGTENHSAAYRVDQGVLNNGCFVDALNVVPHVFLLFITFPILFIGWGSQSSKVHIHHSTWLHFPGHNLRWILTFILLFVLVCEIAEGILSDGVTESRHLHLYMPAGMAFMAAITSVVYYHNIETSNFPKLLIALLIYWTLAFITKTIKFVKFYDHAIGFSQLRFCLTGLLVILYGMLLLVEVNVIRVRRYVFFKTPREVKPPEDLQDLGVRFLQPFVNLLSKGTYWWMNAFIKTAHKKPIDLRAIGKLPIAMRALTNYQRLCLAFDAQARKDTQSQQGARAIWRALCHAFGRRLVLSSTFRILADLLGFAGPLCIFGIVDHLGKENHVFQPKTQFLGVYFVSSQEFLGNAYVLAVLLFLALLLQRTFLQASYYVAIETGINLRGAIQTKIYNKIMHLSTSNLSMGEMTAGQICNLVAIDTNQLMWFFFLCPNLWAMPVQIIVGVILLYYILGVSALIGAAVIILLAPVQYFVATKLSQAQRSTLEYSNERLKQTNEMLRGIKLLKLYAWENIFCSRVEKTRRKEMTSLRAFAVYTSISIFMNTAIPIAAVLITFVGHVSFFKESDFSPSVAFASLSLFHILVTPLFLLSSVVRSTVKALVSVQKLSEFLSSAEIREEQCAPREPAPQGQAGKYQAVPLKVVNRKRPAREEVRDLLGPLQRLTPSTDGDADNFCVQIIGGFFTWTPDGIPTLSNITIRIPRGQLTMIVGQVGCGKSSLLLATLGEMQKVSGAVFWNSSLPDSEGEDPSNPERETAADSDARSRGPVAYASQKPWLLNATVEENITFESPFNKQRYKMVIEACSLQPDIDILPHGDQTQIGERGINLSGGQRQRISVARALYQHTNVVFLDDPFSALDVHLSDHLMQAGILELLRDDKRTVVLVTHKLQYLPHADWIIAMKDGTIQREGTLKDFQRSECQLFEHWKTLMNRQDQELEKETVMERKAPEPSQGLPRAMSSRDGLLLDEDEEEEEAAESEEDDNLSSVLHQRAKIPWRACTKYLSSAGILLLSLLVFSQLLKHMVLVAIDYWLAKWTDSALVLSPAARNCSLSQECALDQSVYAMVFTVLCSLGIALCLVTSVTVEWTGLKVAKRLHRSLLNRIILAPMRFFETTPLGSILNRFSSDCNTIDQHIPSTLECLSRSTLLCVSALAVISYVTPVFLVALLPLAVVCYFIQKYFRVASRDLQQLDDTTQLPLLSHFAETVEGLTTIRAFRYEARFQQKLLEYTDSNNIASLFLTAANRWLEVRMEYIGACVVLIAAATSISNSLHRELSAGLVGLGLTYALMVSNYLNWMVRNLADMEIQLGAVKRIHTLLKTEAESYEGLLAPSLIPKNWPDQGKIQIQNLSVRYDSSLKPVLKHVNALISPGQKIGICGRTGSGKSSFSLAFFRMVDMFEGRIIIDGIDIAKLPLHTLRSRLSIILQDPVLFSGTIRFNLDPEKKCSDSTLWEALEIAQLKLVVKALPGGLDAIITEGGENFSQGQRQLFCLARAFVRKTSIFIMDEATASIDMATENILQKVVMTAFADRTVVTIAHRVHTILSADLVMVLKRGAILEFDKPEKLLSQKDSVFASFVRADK
Test: [3H]-glibenclamide displacement radioassay in SUR1-expressing HEK293t cells
Type: binding
Details: displacement of [3H]-glibenclamide, SUR1-expressing HEK293t cells, n = 3; cis-state may relax thermally during washing
Answers are plain numbers, in µM.

{"columns": ["Compound", "Experimental Target", "Endpoint Name", "Endpoint Unit", "Recorded Result"],
 "data": [
  ["CCN(CC)c1ccc(/N=N/c2ccc(S(=O)(=O)NC(=O)NC3CCCCC3)cc2)cc1", "SUR1 (Rattus norvegicus, UniProt Q09429)", "IC50", "µM", 17.6]
]}

Here is the next item to consider.
Q: Quick check: IC50 of CCN(CC)c1ccc(/N=N\c2ccc(S(=O)(=O)NC(=O)NC3CCCCC3)cc2)cc1 [cis-JB253] ?
A: 14.8
